- MEASUREMENT_TARGET: Sodium-dependent dopamine transporter (Rattus norvegicus, UniProt P23977)
- Sequence (P23977 whole entry): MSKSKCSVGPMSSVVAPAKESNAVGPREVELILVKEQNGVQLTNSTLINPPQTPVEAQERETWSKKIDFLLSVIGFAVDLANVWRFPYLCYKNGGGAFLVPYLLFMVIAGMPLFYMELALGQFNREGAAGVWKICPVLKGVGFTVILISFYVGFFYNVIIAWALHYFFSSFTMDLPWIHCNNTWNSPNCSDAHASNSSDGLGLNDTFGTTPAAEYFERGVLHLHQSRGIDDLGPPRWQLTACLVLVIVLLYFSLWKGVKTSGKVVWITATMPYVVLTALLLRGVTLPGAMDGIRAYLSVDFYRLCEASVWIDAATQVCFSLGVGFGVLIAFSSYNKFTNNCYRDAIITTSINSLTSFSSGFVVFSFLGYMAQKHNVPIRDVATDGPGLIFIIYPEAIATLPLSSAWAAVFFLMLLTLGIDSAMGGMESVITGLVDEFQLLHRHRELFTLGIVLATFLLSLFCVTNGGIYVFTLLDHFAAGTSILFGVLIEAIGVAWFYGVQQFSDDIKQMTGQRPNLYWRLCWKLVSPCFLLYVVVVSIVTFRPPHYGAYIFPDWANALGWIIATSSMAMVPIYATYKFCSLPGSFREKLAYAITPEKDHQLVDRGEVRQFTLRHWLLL
- EXPERIMENT_DESCRIPTION: Potency for the inhibition of [3H]WIN-35428 binding to the dopamine transporter
PROPERTY_LABEL: IC50 (nM)
One number for each entry, in nM.

// below: answered compounds
Data request: Look up IC50 for this compound: COC(=O)C1C2CC[C@H](C[C@@H]1OC(=O)c1cccc(N=C=S)c1)N2C (stereo partly drawn)
Data returned: 1460

Data request: Look up IC50 for this compound: COC(=O)C1C2CC[C@H](C[C@@H]1OC(=O)c1ccc(N)cc1)N2C (stereo partly drawn)
Data returned: 1230

Now, please, on to the next compound.
Data request: Look up IC50 for this compound: COC(=O)C1C2CC[C@H](C[C@@H]1OC(=O)c1ccc(N=C=S)cc1)N2C (stereo partly drawn)
Data returned: 1050
